# system-under-test: Aurora B (Homo sapiens (Human), UniProt Q96GD4)
# Sequence (Q96GD4 whole entry): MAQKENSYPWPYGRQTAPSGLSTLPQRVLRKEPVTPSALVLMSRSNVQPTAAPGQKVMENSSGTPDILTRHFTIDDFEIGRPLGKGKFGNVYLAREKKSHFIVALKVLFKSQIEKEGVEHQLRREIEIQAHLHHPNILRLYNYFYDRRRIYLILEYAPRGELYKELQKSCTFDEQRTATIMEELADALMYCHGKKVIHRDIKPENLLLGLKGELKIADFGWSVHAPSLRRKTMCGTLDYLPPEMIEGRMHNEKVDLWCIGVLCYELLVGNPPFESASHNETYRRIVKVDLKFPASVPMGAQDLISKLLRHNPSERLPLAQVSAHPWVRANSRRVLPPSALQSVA
# protocol-details: Aurora B kinase assay (mobility shift assay)
# Format: biochemical
# stated-conditions: ratio of Aurora B IC50 to Aurora A IC50
For each record, write down the corresponding IC50 Ratio Aur B/Aur A.
One number for each entry.

A selection of reference data follows.
molecule	IC50 Ratio Aur B/Aur A
CCC1CC(Cc2nc(Nc3cc(C)[nH]n3)ccc2F)(C(=O)O)CCN1Cc1cccc(Cl)c1F (stereo not shown)	1236
Cc1cc(Nc2ncc(F)c(C[C@@]3(C(=O)O)CCN(Cc4cccc(Cl)c4F)[C@H](C)C3)n2)n[nH]1	1499
Cc1cc(Nc2cc(C#N)c(F)c(C[C@@]3(C(=O)O)CCN(Cc4cccc(Cl)c4F)[C@H](C)C3)n2)[nH]n1	759

Hey, can you go through the list below and give me IC50 Ratio Aur B/Aur A for every item?
1. Cc1cc(Nc2nc(C[C@@]3(C(=O)O)CCN(Cc4cccc(Cl)c4F)[C@H](C)C3)cnc2C)n[nH]1
2. Cc1cc(Nc2ccc(F)c(C[C@@]3(C(=O)O)CCN(S(=O)(=O)c4ccccc4C(F)(F)F)[C@H](C)C3)n2)n[nH]1
3. Cc1cc(Nc2ccc(F)c(C[C@@]3(C(=O)O)CCN(Cc4c(F)ccc(Cl)c4F)[C@H](C)C3)n2)n[nH]1
4. Cc1cc(Nc2nc(C[C@@]3(C(=O)O)CCN(Cc4cccc(Cl)c4F)[C@H](C)C3)c(F)c(Cl)c2Cl)n[nH]1

OUT:
1: 3757; 2: 3019; 3: 6112; 4: 4026

###

# protocol-details: PK in rat
# Format: in vivo
# stated-conditions: rat, plasma; SD male rats, PO: 10 mg/kg; read-out: Cmax
I'd be grateful if you could share measured Cmax for these entries.
One number for each entry, in ng/mL.

Here are 4 compounds together with their reported answers.
compound	value-unit	numeric-result
Cc1cc(Nc2nc(C[C@@]3(C(=O)O)CCN(Cc4cccc(Cl)c4F)[C@H](C)C3)ccc2F)[nH]n1 [Example 5]	ng/mL	26600
Cc1cc(Nc2ccc(F)c(C[C@@]3(C(=O)O)CCN(Cc4c(F)ccc(Cl)c4F)[C@H](C)C3)n2)n[nH]1 [Example 6]	ng/mL	34900
Cc1cc(Nc2cc(C)c(F)c(C[C@@]3(C(=O)O)CCN(Cc4cccc(Cl)c4F)[C@H](C)C3)n2)n[nH]1 [Example 49]	ng/mL	21000
Cc1cc(Nc2cc(C)c(F)c(C[C@@]3(C(=O)O)CCN(Cc4c(F)ccc(Cl)c4F)[C@H](C)C3)n2)n[nH]1 [Example 50]	ng/mL	16100

As a next step, examine the compound that follows.
IN: Item Cc1cc(Nc2nc(C[C@@]3(C(=O)O)CCN(Cc4cccc(Cl)c4F)[C@H](C)C3)cc(C)c2F)n[nH]1 [Example 78] has what recorded Cmax?
OUT: 28900

###

# system-under-test: Aurora A (Homo sapiens (Human), UniProt O14965)
# Sequence (O14965 whole entry): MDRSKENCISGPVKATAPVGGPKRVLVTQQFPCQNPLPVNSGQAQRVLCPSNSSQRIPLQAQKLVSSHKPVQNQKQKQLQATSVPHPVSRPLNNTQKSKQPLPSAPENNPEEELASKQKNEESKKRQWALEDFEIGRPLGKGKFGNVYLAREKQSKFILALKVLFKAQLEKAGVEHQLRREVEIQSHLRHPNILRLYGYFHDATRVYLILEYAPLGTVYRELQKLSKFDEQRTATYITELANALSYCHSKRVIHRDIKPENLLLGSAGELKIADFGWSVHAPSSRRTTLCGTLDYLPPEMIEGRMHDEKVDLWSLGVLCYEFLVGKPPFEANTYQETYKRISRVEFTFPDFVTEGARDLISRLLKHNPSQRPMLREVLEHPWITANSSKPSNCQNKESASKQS
# protocol-details: Aurora A kinase assay (mobility shift assay)
# Type: biochemical
property-name: IC50 (nM)
Numbers only, in nM.

compound	system-under-test	value-unit	IC50
Cc1cc(Nc2cc(C#N)c(F)c(C[C@@]3(C(=O)O)CCN(Cc4cccc(Cl)c4F)[C@H](C)C3)n2)[nH]n1	Aurora A (Homo sapiens (Human), UniProt O14965)	nM	1.6
Cc1cc(Nc2cc(C)c(F)c(CC3(C(=O)O)CCN(Cc4cccc(Cl)c4F)CC3)n2)n[nH]1	Aurora A (Homo sapiens (Human), UniProt O14965)	nM	0.22
Cc1cc(Nc2cncc(C[C@@]3(C(=O)O)CCN(Cc4cccc(Cl)c4F)[C@H](C)C3)n2)n[nH]1 (stereo in doubt)	Aurora A (Homo sapiens (Human), UniProt O14965)	nM	0.88
Cc1cc(Nc2nc(C[C@@]3(C(=O)O)CCN(Cc4cccc(Cl)c4F)[C@H](C)C3)ccc2F)[nH]n1	Aurora A (Homo sapiens (Human), UniProt O14965)	nM	0.59
Cc1cc(Nc2ccc(F)c(C[C@@]3(C(=O)O)CCN(Cc4ccc(F)c(Cl)c4F)[C@H](C)C3)n2)n[nH]1	Aurora A (Homo sapiens (Human), UniProt O14965)	nM	0.81
Cc1cc(Nc2cc(C)c(F)c(CC3(C(=O)O)CCN(Cc4c(F)ccc(Cl)c4F)CC3)n2)n[nH]1	Aurora A (Homo sapiens (Human), UniProt O14965)	nM	0.88

IN: I would be grateful if you could share the reported IC50 for CC[C@@H]1C[C@](Cc2nc(Nc3cc(C)[nH]n3)ccc2F)(C(=O)O)CCN1Cc1cccc(Cl)c1F .
OUT: 1.2
